- assay system: Glucocorticoid receptor (Homo sapiens); note: assay procedure not described here
- Sequence (P04150 whole entry): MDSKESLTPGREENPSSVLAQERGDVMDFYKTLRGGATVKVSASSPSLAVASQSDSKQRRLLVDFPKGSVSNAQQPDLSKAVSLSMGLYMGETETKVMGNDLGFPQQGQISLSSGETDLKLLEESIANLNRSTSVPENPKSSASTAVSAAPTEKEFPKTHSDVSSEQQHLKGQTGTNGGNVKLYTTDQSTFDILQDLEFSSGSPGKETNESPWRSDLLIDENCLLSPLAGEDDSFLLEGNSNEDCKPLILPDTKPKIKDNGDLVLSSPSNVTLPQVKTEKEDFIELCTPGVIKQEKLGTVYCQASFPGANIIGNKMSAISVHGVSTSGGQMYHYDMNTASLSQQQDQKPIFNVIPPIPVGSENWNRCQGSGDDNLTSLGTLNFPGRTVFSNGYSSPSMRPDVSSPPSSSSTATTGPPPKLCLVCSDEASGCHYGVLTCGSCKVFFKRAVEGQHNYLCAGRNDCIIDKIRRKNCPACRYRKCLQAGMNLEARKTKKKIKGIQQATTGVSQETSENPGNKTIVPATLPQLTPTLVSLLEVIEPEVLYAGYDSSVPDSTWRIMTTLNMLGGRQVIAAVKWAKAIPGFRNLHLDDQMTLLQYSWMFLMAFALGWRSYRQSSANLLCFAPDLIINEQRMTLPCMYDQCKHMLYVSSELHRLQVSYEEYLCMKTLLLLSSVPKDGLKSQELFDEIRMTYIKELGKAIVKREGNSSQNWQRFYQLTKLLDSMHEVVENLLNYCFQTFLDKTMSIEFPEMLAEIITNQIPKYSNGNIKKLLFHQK
- Type: functional
Catalogue of AC50 values

CNC1Cc2ccccc2N(C)c2ccccc21 (stereo not drawn) [METAPRAMINE] : > 30 µM

Request: I would be grateful if you could share the reported AC50 for CNC(=O)c1ccccc1Sc1ccc2c(/C=C/c3ccccn3)n[nH]c2c1 [AXITINIB] .
Result: > 10 µM

Request: I would be grateful if you could share the reported AC50 for C[C@H]1CNCCc2ccc(Cl)cc21 [LORCASERIN] .
Result: > 30 µM

###

Catalogue of AC50 values
- assay system: Muscarinic acetylcholine receptor M2 (Homo sapiens); note: assay procedure not described here
- Sequence (P08172 whole entry): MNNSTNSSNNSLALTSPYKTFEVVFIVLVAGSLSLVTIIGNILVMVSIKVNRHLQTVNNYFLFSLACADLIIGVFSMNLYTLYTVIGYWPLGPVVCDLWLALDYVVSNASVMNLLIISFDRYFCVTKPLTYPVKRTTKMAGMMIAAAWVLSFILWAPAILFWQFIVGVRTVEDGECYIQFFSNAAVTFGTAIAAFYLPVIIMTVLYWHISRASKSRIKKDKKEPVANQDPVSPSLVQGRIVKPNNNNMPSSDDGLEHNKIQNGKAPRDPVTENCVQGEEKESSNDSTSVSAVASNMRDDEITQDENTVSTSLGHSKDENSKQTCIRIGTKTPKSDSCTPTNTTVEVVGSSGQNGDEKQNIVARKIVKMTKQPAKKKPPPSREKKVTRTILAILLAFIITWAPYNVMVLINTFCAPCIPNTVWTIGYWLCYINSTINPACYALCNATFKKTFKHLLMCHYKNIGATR
- Assay type: functional, cell-based

Reference set, count: 3
CCCCc1ncc(/C=C(\Cc2cccs2)C(=O)O)n1Cc1ccc(C(=O)O)cc1 : > 10 µM
COC(=O)C1=C(C)NC(C)=C(C(=O)OC(C)(C)CN(C)CCC(c2ccccc2)c2ccccc2)C1c1cccc([N+](=O)[O-])c1 (centres undefined) : > 30 µM
CN1CCN(C2=Nc3ccccc3Sc3ccc(Cl)cc32)CC1 : > 30 µM

Now examine the next entry.
Request: I would be grateful if you could share the reported AC50 for Cn1nnc2c(C(N)=O)ncn2c1=O [TEMOZOLOMIDE] .
Result: > 30 µM
